Reported gram absorption coefficient by item:
# measurement_description: Absorption spectrum of toluene solution (maximum absorption, gram absorption coefficient)
# Assay type: physicochemical
# setup_conditions: at maximum absorption
# Method: A toluene solution of the compound obtained in this way had maximum absorption at 734.0 nm, and the gram absorption coefficient thereof was 1.21×10^5 mL/g·cm. The absorption spectrum chart thereof is illustrated in FIG. 1.
Give the value, in units of mL/g/cm, as a plain number.

COCc1ccc(COC)c2c1-c1nc-2nc2[n-]c(nc3nc(nc4[n-]c(n1)c1c(COC)ccc(COC)c41)-c1c(COC)ccc(COC)c1-3)c1c(COC)ccc(COC)c21.[O]=[V+2] [Comparative Example Compound (a), reference compound] :: 130000

[Q] Which gram absorption coefficient value is on record for COCCCCc1ccc(CCCCOC)c2c1-c1nc-2nc2[n-]c(nc3nc(nc4[n-]c(n1)c1c(CCCCOC)ccc(CCCCOC)c41)-c1c(CCCCOC)ccc(CCCCOC)c1-3)c1c(CCCCOC)ccc(CCCCOC)c21.[Cu+2] ?
[A] 78900

[Q] Please report the recorded gram absorption coefficient for CC(C)(C)c1ccc(OCCCCc2ccc(CCCCOc3ccc(C(C)(C)C)cc3)c3c2-c2nc-3nc3[n-]c(nc4nc(nc5[n-]c(n2)c2c(CCCCOc6ccc(C(C)(C)C)cc6)ccc(CCCCOc6ccc(C(C)(C)C)cc6)c52)-c2c(CCCCOc5ccc(C(C)(C)C)cc5)ccc(CCCCOc5ccc(C(C)(C)C)cc5)c2-4)c2c(CCCCOc4ccc(C(C)(C)C)cc4)ccc(CCCCOc4ccc(C(C)(C)C)cc4)c32)cc1.[O]=[V+2] .
[A] 71000

[Q] # lookup: gram absorption coefficient of COCCCCCCCCc1ccc(CCCCCCCCOC)c2c1-c1nc-2nc2[n-]c(nc3nc(nc4[n-]c(n1)c1c(CCCCCCCCOC)ccc(CCCCCCCCOC)c41)-c1c(CCCCCCCCOC)ccc(CCCCCCCCOC)c1-3)c1c(CCCCCCCCOC)ccc(CCCCCCCCOC)c21.[O]=[V+2] [Comparative Example Compound (b), reference compound]
[A] 105000

[Q] Reported gram absorption coefficient for COc1cccc(OC)c1OCCCCc1ccc(CCCCOc2c(OC)cccc2OC)c2c1-c1nc-2nc2[n-]c(nc3nc(nc4[n-]c(n1)c1c(CCCCOc5c(OC)cccc5OC)ccc(CCCCOc5c(OC)cccc5OC)c41)-c1c(CCCCOc4c(OC)cccc4OC)ccc(CCCCOc4c(OC)cccc4OC)c1-3)c1c(CCCCOc3c(OC)cccc3OC)ccc(CCCCOc3c(OC)cccc3OC)c21.[O]=[V+2] : what is it?
[A] 67500
